Collected from the literature: IC50 of various compounds toward RORc (Homo sapiens, UniProt P51449).
// return numeric value only (unit: nM, not printed)

Record excerpt, results attached:
INSERT INTO measurements (compound, target_desc, readout_number) VALUES
  ('C[C@H]1CCC(c2ccccc2)S(=O)(=O)N1Cc1ccc(C(=O)NCc2cn[nH]c2)cc1 (single isomer, unassigned)', 'RORc (Homo sapiens, UniProt P51449)', 502),
  ('C[C@H]1CC[C@H](c2ccccc2)S(=O)(=O)N1Cc1cc(F)c([C@@](C)(CO)C(N)=O)cc1F', 'RORc (Homo sapiens, UniProt P51449)', 35.4);

Value wanted: IC50 (RORc (Homo sapiens, UniProt P51449)) of entry "CC(=O)N1CCC(Nc2ccc(S(=O)(=O)N(CC(C)C)c3cccc(Cl)c3)cc2)CC1"
258

Entry "CC[C@H](CO)O[C@@]12CC[C@@H](c3cc(-c4c(F)cccc4F)nnc31)C2(C)C" please
19.8

Entry "CC(C)OC1CN(C(=O)[C@]23CC[C@H](c4cc(-c5c(F)cccc5F)nnc42)C3(C)C)C1" please
844

Entry CC(C)(C)OC(=O)N1CCCC(c2nccc([C@@]34CC[C@@H](c5cc(-c6c(F)cccc6F)nnc53)C4(C)C)n2)C1 (stereo partly drawn) please
15.8

Entry "CC1(C)[C@H]2CC[C@]1(C(=O)NCCO)c1nnc(-c3ccccc3F)cc12" please
2670

Entry "CC1(C)[C@H]2CC[C@]1([C@H]1CCCN(C(=O)NC3COC3)C1)c1nnc(-c3c(F)cccc3F)cc12" please
6.1

Entry "CCNC(=O)N(C)[C@@]12CC[C@@H](c3cc(-c4c(F)cccc4F)nnc31)C2(C)C" please
2070

Entry "CN1CCN(C(N)=O)[C@@H]([C@@]23CC[C@@H](c4cc(-c5c(F)cccc5F)nnc42)C3(C)C)C1" please
62

Entry "CC1(C)[C@H]2CC[C@]1(c1cncc(N)n1)c1nnc(-c3c(F)cccc3F)cc12" please
22

Entry "O=S(=O)(Cc1ccccc1)N(Cc1ccc(-c2ccncc2)cc1F)CC(F)(F)F" please
282

Entry "CC1(C)[C@H]2CC[C@]1(c1ccnc(-c3ccnc(CO)c3)n1)c1nnc(-c3c(F)cccc3F)cc12" please
7.1

Entry "CC1(C)[C@H]2CC[C@]1(c1nc(C(=O)NCCO)ncc1Br)c1nnc(-c3c(F)cccc3F)cc12" please
57.7

====

Collected from the literature: IC50 of various compounds toward RORc (Homo sapiens).

Record excerpt, results attached:
INSERT INTO results (compound, result) VALUES
  ('Cc1ncoc1[C@]12CC[C@H](c3cc(-c4c(F)cccc4F)nnc31)C2(C)C', '139 nM'),
  ('CC(C)n1nc(C2CC2)cc1CN(c1ncnc(NCc2ccc(CC(N)=O)cc2)c1F)C1CC1', '< 500 nM'),
  ('CS(=O)(=O)Nc1ncc(CNc2ncnc(N(Cc3ccc(C(F)(F)F)cc3)C3CC3)c2F)cn1', '< 1000 nM'),
  ('NC(=O)Cc1ccc(CNc2ncnc(N(Cc3ccc(C(F)(F)F)nc3)C3CC3)c2F)cn1', '< 2000 nM'),
  ('Cn1nccc1[C@@]12CC[C@@H](c3cc(-c4c(F)cccc4F)nnc31)C2(C)C', '146 nM'),
  ('O=S(=O)(NC1CC1)c1ccc(CNc2ncnc(N(Cc3ccc(C(F)(F)F)cc3)C3CC3)c2F)cc1', '< 500 nM'),
  ('NC(=O)Cc1ccc(CNc2ncnc(N(Cc3ccc(C(F)(F)F)nc3)C3CC3)c2F)cc1', '< 500 nM'),
  ('CCCn1nc(C)cc1CN(C)c1ncnc(NCC2CCN(S(=O)(=O)C(F)F)CC2)c1F', '< 500 nM'),
  ('N#Cc1ccc(CN(c2ncnc(NCc3ccc(CC(N)=O)cc3)c2F)C2CC2)cc1', '< 500 nM'),
  ('NC(=O)Cc1ccc(CNc2ncnc(N(Cc3ccc(C(F)(F)F)cc3)C3CC3)c2F)cc1', '< 500 nM');

Which measured IC50 value corresponds to "CC[C@@H](O[C@@]12CC[C@@H](c3cc(-c4c(F)cccc4F)nnc31)C2(C)C)C(=O)N1CCCOCC1" ?
148 nM

Entry CC(NC(=O)c1cc[nH]n1)c1cc(F)c(CN2[C@@H](C)CC[C@H](c3ccccc3)S2(=O)=O)cc1F (stereo in doubt) please
83.3 nM

Entry "C[C@H](NC1(c2ccc(CN3[C@@H](C)CC[C@H](c4ccccc4)S3(=O)=O)c(F)c2)CCOCC1)C(N)=O" please
102 nM
